system: recombinant human KLK5 (human) (UniProt Q9Y337)
Sequence (Q9Y337 67-293): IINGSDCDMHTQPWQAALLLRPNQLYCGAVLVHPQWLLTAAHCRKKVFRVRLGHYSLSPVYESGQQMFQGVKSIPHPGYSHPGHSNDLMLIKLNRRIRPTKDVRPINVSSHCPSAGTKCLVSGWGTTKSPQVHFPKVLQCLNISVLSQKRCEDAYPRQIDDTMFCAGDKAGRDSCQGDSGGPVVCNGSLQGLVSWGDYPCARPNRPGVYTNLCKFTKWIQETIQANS
assay.overview: pro-KLK7 LC/MS assay, 5 nM KLK5, 15 nM pro-KLK7, nM
readout.kind: IC50 (nM)
Quick reminder: number only, in nM, skip the unit.

Known results for binders:
binder: 10H3 (antibody, V domains shown) VH: QSVKESEGGLIKPTDTLTLTCTVSGFSLSTFAINWVRQAPGNGLEWIGAIGRGGSAYYASWAKSRSTITKNTNLNTVTLKMTRPTAADTATYFCARENAGSGWGELDIWGPGTLVTVSS VL: AYEMTQTPASVEVAVGGTVTINCQASESISSDLAWYQQKPGQRPKLLIYAASTLASGVPSRFKGSGSGTEFTLSISGVQCADAATYYCQQGYTWNNVDNVFGGGTEVVVK
readout.kind: IC50
readout.value: 0.968
--
binder: 2B11 (antibody, V domains shown) VH: QSVKESEGGLFKPTDTLTLTCTVSGFSLINYGVSWVRQAPGKGLEWIGYIGSAGSTYYATWAKSRATITRNTNLNTVTLKMTSLTAADTATYFCARAAYSAGSADAEDIWGPGTLVTVSS VL: AYYMTQTPASVEAAVGGTVTIKCQASQSISNYVAWYQQKPGQPPKLLIYRASTLASGVSSRFSGSGSGTEFTLTISDLECADAATYYCHQGYSSSNVDNIFGGGTEVVVK
readout.kind: IC50
readout.value: 1.72
--
binder: 9H3 (antibody, V domains shown) VH: QSVKESEGGLFKPTDTLTLTCTVSGFSLSGYGVSWVRQAPGKGLEYIGFIGSGGSAYYASWAKSRSTITRNTNLNTVTLKMTRLTAADTATYFCARDNVGGDMSLDIWGPGTLVTVSS VL: DIVMTQTPASVSEPVGGTVTIKCQASQNINNYLSWYQQKPGQPPKQLIYAASTLASGVPSRFKGSGSGTQFTLTISDLECADAATYYCHQDYTSNNVDNTFGGGTEVVVK
readout.kind: IC50
readout.value: 1.05
--
binder: 10C8 (antibody, V domains shown) VH: QSVKESEGGLFKPTDNLTLTCTVSGFSLSSYGVSWVRQAPGNGLEYIGFIGSGGFAYYASWAKSRSTITRNTNLNTVTLKMTSLTAADTATYFCARDDVGGGRSLDIWGPGTVVTVSS VL: NIVMTQTPASVEVAMGGTVIIKCQASQSISTYLSWYQQKPGQPPKLLIYSASTLASGVSSRFEGSGSGTQFTLTISGVQCADAATYYCHQDYTSNNVDNTFGGGTEVVVK
readout.kind: IC50
readout.value: 1.8

Now turn to the next binder.
Annotate the binder 2-3F4 (antibody, V domains shown) VH: QSVEESRGGLIKPTDTLTLTCTASGFSLSNYGVSWVRQAPGNGLEYIGFIGYGGSTYYASWAKSRSTITRNTNLNTVTLQMTSLTAADTATYFCARLCGVDCADALDSWGPGTLVTVSS VL: AYYMTQTPASVEVAVGGTVTIKCQASEDIGSYCSWYQQKPGQPPKLLIYDASDLASGVPSRFKGSGSGTDFTLTISGVQCDDAATYYCQQDYTGNNVDNTFGGGSEVVVK with its measured IC50.
0.384
